This collection of values is drawn from patent US20260083865A1.

Parameter: Kd. Scope: all listed entries.
# measuredTarget: Fc-fusion protein of human PSMA (hPSMA-Fc) (Homo sapiens)
# Construct: purchased Acro Biosystems PSA-H5264
# Sequence (Q04609 44-750 limits assumed): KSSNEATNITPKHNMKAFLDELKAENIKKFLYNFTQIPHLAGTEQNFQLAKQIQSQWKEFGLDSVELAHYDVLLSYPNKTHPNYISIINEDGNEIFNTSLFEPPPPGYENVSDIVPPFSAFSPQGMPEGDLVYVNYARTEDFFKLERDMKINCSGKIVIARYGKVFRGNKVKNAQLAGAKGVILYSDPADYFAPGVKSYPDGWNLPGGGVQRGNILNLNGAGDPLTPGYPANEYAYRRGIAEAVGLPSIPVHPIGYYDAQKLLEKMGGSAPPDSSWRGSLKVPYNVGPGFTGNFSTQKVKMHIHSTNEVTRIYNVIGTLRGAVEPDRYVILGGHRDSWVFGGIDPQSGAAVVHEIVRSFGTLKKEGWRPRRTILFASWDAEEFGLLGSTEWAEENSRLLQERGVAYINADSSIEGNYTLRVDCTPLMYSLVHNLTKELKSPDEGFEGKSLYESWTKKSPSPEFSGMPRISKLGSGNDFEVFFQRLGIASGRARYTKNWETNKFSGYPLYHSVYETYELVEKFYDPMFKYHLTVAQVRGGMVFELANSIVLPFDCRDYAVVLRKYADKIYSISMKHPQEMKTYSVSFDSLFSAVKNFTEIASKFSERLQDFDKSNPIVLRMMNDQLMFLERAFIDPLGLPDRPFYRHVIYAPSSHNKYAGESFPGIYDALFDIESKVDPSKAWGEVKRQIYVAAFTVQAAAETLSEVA
# method: Surface plasmon resonance assay (Biacore T200, single cycle kinetic)
# Assay type: binding
# experimentalContext: PSMA SPR assay, hPSMA-Fc, 25° C.; pKD category; read-out: pKD CAT (converted)
Numbered stars: 1 amine (or outer) side, 2 acyl side, 3 side chain; on linkers, the order of the positions; unused ones are H or OH. Bridge positions count the residues as written; N and C are the ends. Square brackets hold non-standard residues; d marks the D form. Peptide text beside a SMILES is read from it. * marks the point of attachment. TtdsdLys(DOTA)NH2 = NC(=O)[C@@H](CCCCNC(=O)CN1CCN(CC(=O)O)CCN(CC(=O)O)CCN(CC(=O)O)CC1)NC(=O)CCC(=O)NCCCOCCOCCOCCCN*; DOTA = O=C(O)CN1CCN(CC(=O)O)CCN(CC(=O)*)CCN(CC(=O)O)CC1; Ala(quinolin-3-yl) = N[C@@H](Cc1cnc2ccccc2c1)C(=O)O; Phe(4-Cl) = N[C@@H](Cc1ccc(Cl)cc1)C(=O)O; Arg(Me) = CNC(=N)NCCC[C@H](N)C(=O)O; NMeR = CN[C@@H](CCCNC(=N)N)C(=O)O; X1 = O=C(CC1CCN([*:1])CC1)[*:2]; Lys(Me) = CNCCCC[C@H](N)C(=O)O; Tle = CC(C)(C)[C@H](N)C(=O)O; Aib = CC(C)(N)C(=O)O

Examples with their reported Kd follow.
compound: CC(=O)N[C@H](C(=O)NC(C)(C)C(=O)N[C@@H](Cc1ccccc1)C(=O)N[C@H]1CSSC[C@@H](C(=O)N[C@H](C(=O)N[C@H](C(N)=O)[C@@H](C)O)C(C)(C)C)NC(=O)[C@H](CC(N)=O)NC(=O)[C@H](CCCCNC(=O)CN2CCN(CC(=O)O)CCN(CC(=O)O)CCN(CC(=O)O)CC2)NC(=O)[C@H](CCCNC(=N)N)NC(=O)[C@H](CCCCN)NC1=O)[C@@H](C)O [PSM-0326] (Ac-T[Aib]FCKRK(DOTA)NC[Tle]T-NH2; disulfide 4-9)
Kd: 12.6 to 126 nM
//
compound: CC(=O)N[C@@H](Cc1ccc(Cl)cc1)C(=O)N[C@H]1CSSC[C@@H](C(=O)N[C@H](C(N)=O)C(C)(C)C)NC(=O)[C@H](CC(N)=O)NC(=O)C(C)(C)NC(=O)[C@H](CCCNC(=N)N)NC(=O)[C@H](CCCCN)NC1=O [PSM-0281, Ac-Pcf-[Cys-Lys-Arg-Aib-Asn-Cys]-Tle-NH2] (Ac-[Phe(4-Cl)]CKR[Aib]NC[Tle]-NH2; disulfide 2-7)
Kd: > 501 nM
//
compound: CC(=O)N[C@H](C(=O)NC(C)(C)C(=O)N[C@@H](Cc1ccccc1)C(=O)N[C@H]1CSSC[C@@H](C(=O)N[C@H](C(=O)N[C@H](C(=O)NCCCOCCOCCOCCCNC(=O)CCC(=O)N[C@H](CCCCNC(=O)CN2CCN(CC(=O)O)CCN(CC(=O)O)CCN(CC(=O)O)CC2)C(N)=O)[C@@H](C)O)C(C)(C)C)NC(=O)[C@H](CC(N)=O)NC(=O)C(C)(C)NC(=O)[C@H](CCC(N)=O)NC(=O)[C@H](CCCCN)NC1=O)[C@@H](C)O [PSM-0303] (Ac-T[Aib]FCKQ[Aib]NC[Tle]T-{TtdsdLys(DOTA)NH2}; disulfide 4-9)
Kd: 12.6 to 126 nM
//
compound: C[C@@H](O)[C@H](NC(=O)[C@@H](NC(=O)[C@@H]1CSSC[C@H](NC(=O)[C@H](Cc2ccc(Cl)cc2)NC(=O)C(C)(C)NC(=O)[C@@H](NC(=O)CC2CCN(C(=O)CN3CCN(CC(=O)O)CCN(CC(=O)O)CCN(CC(=O)O)CC3)CC2)[C@@H](C)O)C(=O)N[C@@H](CCCCN)C(=O)N(C)[C@@H](CCCNC(=N)N)C(=O)NC(C)(C)C(=O)N[C@@H](CC(N)=O)C(=O)N1)C(C)(C)C)C(N)=O [PSM-0340] ({DOTA}-[X1]T[Aib][Phe(4-Cl)]CK[NMeR][Aib]NC[Tle]T-NH2; disulfide 5-10)
Kd: < 12.6 nM

// CNCCCC[C@@H]1NC(=O)[C@@H](NC(=O)[C@H](Cc2cnc3ccccc3c2)NC(=O)C(C)(C)NC(=O)[C@@H](NC(=O)CC2CCN(C(=O)CN3CCN(CC(=O)O)CCN(CC(=O)O)CCN(CC(=O)O)CC3)CC2)[C@@H](C)O)CSSC[C@@H](C(=O)N[C@H](C(=O)N[C@H](C(N)=O)[C@@H](C)O)C(C)(C)C)NC(=O)[C@H](CC(N)=O)NC(=O)C(C)(C)NC(=O)[C@H](CCCNC(=N)NC)NC1=O [PSM-0337] ({DOTA}-[X1]T[Aib][Ala(quinolin-3-yl)]C[Lys(Me)][Arg(Me)][Aib]NC[Tle]T-NH2; disulfide 5-10) : Kd value = > 501 nM
